These entries and their values trace back to the supplement of paper PMC11061612.

Measured Bliss excess, listed per entry for reference.
# Tested on: GAK (Melanoma)
# TEST METHOD NOTES: Bliss excess, mean over the matrix (fraction); higher = more synergy
Number, no unit, nothing else.

COMPOUND: CS(=O)(=O)CCNCc1ccc(-c2ccc3ncnc(Nc4ccc(OCc5cccc(F)c5)c(Cl)c4)c3c2)o1 [Lapatinib] + NC1(c2ccc(-c3nc4ccn5c(=O)[nH]nc5c4cc3-c3ccccc3)cc2)CCC1 [MK-2206] (first compound max 10 µM, 7x7, partner max 10 µM)
Bliss excess: 0.0347
--
COMPOUND: Cn1cnc2c(F)c(Nc3ccc(Br)cc3Cl)c(C(=O)NOCCO)cc21 [Selumetinib] + CCN(CCO)CCCOc1ccc2c(Nc3cc(CC(=O)Nc4cccc(F)c4)[nH]n3)ncnc2c1 [AZD2811] (first compound max 10 µM, 7x7, partner max 1 µM)
Bliss excess: -0.069
--
COMPOUND: COc1cccc(OCCCN)c1-c1cc(Nc2cnc(C#N)cn2)n[nH]1 [Prexasertib] + O=C(c1cc(Cc2n[nH]c(=O)c3ccccc23)ccc1F)N1CCN(C(=O)C2CC2)CC1 [Olaparib] (first compound max 1 µM, 7x7, partner max 10 µM)
Bliss excess: -0.0159

Reported Bliss excess ( C[C@@H](Oc1cc(-c2cnn(C3CCNCC3)c2)cnc1N)c1c(Cl)ccc(F)c1Cl [Crizotinib] + Cn1cnc2c(F)c(Nc3ccc(Br)cc3Cl)c(C(=O)NOCCO)cc21 [Selumetinib] (first compound max 10 µM, 7x7, partner max 10 µM) ) = -0.0473

---

# System: UACC-257 (Melanoma)
# TEST METHOD NOTES: combination Emax (second highest fraction inhibited in the dose matrix, 72 h); higher = more inhibition; extreme values may be limits of the assay
RECORDED METRIC: combination Emax
Number, no unit, nothing else.

COMPOUND: CC1(C)CCC(CN2CCN(c3ccc(C(=O)NS(=O)(=O)c4ccc(NCC5CCOCC5)c([N+](=O)[O-])c4)c(Oc4cnc5[nH]ccc5c4)c3)CC2)=C(c2ccc(Cl)cc2)C1 [Venetoclax] + COc1cc(Nc2ncc3c(n2)-c2ccc(Cl)cc2C(c2c(F)cccc2OC)=NC3)ccc1C(=O)O [Alisertib] (first compound max 1 µM, 7x7, partner max 10 µM)
combination Emax: 0.191

Shifting focus to the compound that follows.
Entry CN(CCO)CC[C@H](CSc1ccccc1)Nc1ccc(S(=O)(=O)NC(=O)c2ccc(N3CCC([C@@H](O)c4ccccc4-c4ccc(Cl)cc4)CC3)cc2)cc1S(=O)(=O)C(F)(F)F [AZD4320] + Cn1cnc2c(F)c(Nc3ccc(Br)cc3Cl)c(C(=O)NOCCO)cc21 [Selumetinib] (first compound max 1 µM, 7x7, partner max 3 µM) : combination Emax on UACC-257 (Melanoma) = 0.838

---

Measured Bliss excess, listed per entry for reference.
# Tested on: NAMALWA (Burkitt's Lymphoma)
# TEST METHOD NOTES: Bliss excess, mean over the matrix (fraction); higher = more synergy
Number, no unit, nothing else.

COMPOUND: Cc1c2c(nn1C)CSCc1cc(n(C)n1)CSc1cc(c3ccccc3c1)OCCCc1c(C(=O)O)n(C)c3c-2c(Cl)ccc13 [AZD5991] + CS(=O)(=O)CCNCc1ccc(-c2ccc3ncnc(Nc4ccc(OCc5cccc(F)c5)c(Cl)c4)c3c2)o1 [Lapatinib] (first compound max 1 µM, 7x7, partner max 10 µM)
NUMBER: -0.0204

Shifting focus to the compound that follows.
Reported Bliss excess ( Cc1c2c(nn1C)CSCc1cc(n(C)n1)CSc1cc(c3ccccc3c1)OCCCc1c(C(=O)O)n(C)c3c-2c(Cl)ccc13 [AZD5991] + C[C@@H](Nc1cc(F)cc(F)c1)c1cc(C(=O)N(C)C)cc2c(=O)cc(N3CCOCC3)oc12 [AZD8186] (first compound max 1 µM, 7x7, partner max 3 µM) ) = 0.0021

---

# System: ZR-75-30 (Breast Carcinoma)
# TEST METHOD NOTES: Bliss excess, mean over the matrix (fraction); higher = more synergy
The label depends only on Bliss excess: 1 if it is at least -0.03, 0 if it is smaller.

Solved entries (count: 5):
COMPOUND: CN(CCO)CC[C@H](CSc1ccccc1)Nc1ccc(S(=O)(=O)NC(=O)c2ccc(N3CCC([C@@H](O)c4ccccc4-c4ccc(Cl)cc4)CC3)cc2)cc1S(=O)(=O)C(F)(F)F [AZD4320] + C1CN(CCC1(C(=O)N[C@@H](CCO)C2=CC=C(C=C2)Cl)N)C3=NC=NC4=C3C=CN4 [Capivasertib] (first compound max 1 µM, 7x7, partner max 3 µM)
LABEL: 0
--
COMPOUND: NC1(C(=O)N[C@@H](CCO)c2ccc(Cl)cc2)CCN(c2ncnc3[nH]ccc23)CC1 [Capivasertib] + COc1nnc2ccc(N3CCC(c4ccc(OCCN5CCN(C)C(=O)[C@H]5C)cc4)CC3)nn12 [AZD5153] (first compound max 10 µM, 7x7, partner max 1 µM)
LABEL: 0
--
COMPOUND: CC1(C)CCC(CN2CCN(c3ccc(C(=O)NS(=O)(=O)c4ccc(NCC5CCOCC5)c([N+](=O)[O-])c4)c(Oc4cnc5[nH]ccc5c4)c3)CC2)=C(c2ccc(Cl)cc2)C1 [Venetoclax] + CS(=O)(=O)CCNCc1ccc(-c2ccc3ncnc(Nc4ccc(OCc5cccc(F)c5)c(Cl)c4)c3c2)o1 [Lapatinib] (first compound max 1 µM, 7x7, partner max 10 µM)
LABEL: 1
--
COMPOUND: CN(CCO)CC[C@H](CSc1ccccc1)Nc1ccc(S(=O)(=O)NC(=O)c2ccc(N3CCC([C@@H](O)c4ccccc4-c4ccc(Cl)cc4)CC3)cc2)cc1S(=O)(=O)C(F)(F)F [AZD4320] + CCN(CCO)CCCOc1ccc2c(Nc3cc(CC(=O)Nc4cccc(F)c4)[nH]n3)ncnc2c1 [AZD2811] (first compound max 1 µM, 7x7, partner max 1 µM)
LABEL: 1
--
COMPOUND: COc1nnc2ccc(N3CCC(c4ccc(OCCN5CCN(C)C(=O)[C@H]5C)cc4)CC3)nn12 [AZD5153] + C[C@@H]1COCCN1C2=NC(=NC(=C2)C3(CC3)[S@](=N)(=O)C)C4=C5C=CNC5=NC=C4 [AZD6738] (first compound max 1 µM, 7x7, partner max 10 µM)
LABEL: 1

API: the following record is the query input.
Entry Cc1cc2ncnn2cc1Nc1ncc2c(n1)n(C1CCOCC1)c(=O)n2C [AZD7648] + O=C(c1cc(Cc2n[nH]c(=O)c3ccccc23)ccc1F)N1CCN(C(=O)C2CC2)CC1 [Olaparib] (first compound max 10 µM, 7x7, partner max 10 µM) : is its Bliss excess no less than -0.03? 0

---

# Tested on: MM1S (Plasma Cell Myeloma)
# TEST METHOD NOTES: combination Emax (second highest fraction inhibited in the dose matrix, 72 h); higher = more inhibition; extreme values may be limits of the assay
The label depends only on combination Emax: 1 if it is at least 0.6, 0 if it is smaller.

Solved entries (count: 2):
MOLECULE: Cc1c2c(nn1C)CSCc1cc(n(C)n1)CSc1cc(c3ccccc3c1)OCCCc1c(C(=O)O)n(C)c3c-2c(Cl)ccc13 [AZD5991] + CCN(CCO)CCCOc1ccc2c(Nc3cc(CC(=O)Nc4cccc(F)c4)[nH]n3)ncnc2c1 [AZD2811] (first compound max 1 µM, 7x7, partner max 1 µM)
LABEL: 1
//
MOLECULE: CC1(C)CCC(CN2CCN(c3ccc(C(=O)NS(=O)(=O)c4ccc(NCC5CCOCC5)c([N+](=O)[O-])c4)c(Oc4cnc5[nH]ccc5c4)c3)CC2)=C(c2ccc(Cl)cc2)C1 [Venetoclax] + COc1cc(Nc2ncc3c(n2)-c2ccc(Cl)cc2C(c2c(F)cccc2OC)=NC3)ccc1C(=O)O [Alisertib] (first compound max 1 µM, 7x7, partner max 10 µM)
LABEL: 0

Entry CN(CCO)CC[C@H](CSc1ccccc1)Nc1ccc(S(=O)(=O)NC(=O)c2ccc(N3CCC([C@@H](O)c4ccccc4-c4ccc(Cl)cc4)CC3)cc2)cc1S(=O)(=O)C(F)(F)F [AZD4320] + C=CCn1c(=O)c2cnc(Nc3ccc(N4CCN(C)CC4)cc3)nc2n1-c1cccc(C(C)(C)O)n1 [AZD1775] (first compound max 1 µM, partner max 1 µM) : is its combination Emax no less than 0.6? 1

---

Measured combination Emax, listed per entry for reference.
# Test system: DBTRG-05MG (Glioblastoma)
# TEST METHOD NOTES: combination Emax (second highest fraction inhibited in the dose matrix, 72 h); higher = more inhibition; extreme values may be limits of the assay
Number, no unit, nothing else.

Guide cases for combination Emax, answers given:
MOLECULE: CN(CCO)CC[C@H](CSc1ccccc1)Nc1ccc(S(=O)(=O)NC(=O)c2ccc(N3CCC([C@@H](O)c4ccccc4-c4ccc(Cl)cc4)CC3)cc2)cc1S(=O)(=O)C(F)(F)F [AZD4320] + Cc1cc2ncnn2cc1Nc1ncc2c(n1)n(C1CCOCC1)c(=O)n2C [AZD7648] (first compound max 1 µM, 7x7, partner max 10 µM)
combination Emax: 0.827
--
MOLECULE: COc1cccc(OCCCN)c1-c1cc(Nc2cnc(C#N)cn2)n[nH]1 [Prexasertib] + C=CCn1c(=O)c2cnc(Nc3ccc(N4CCN(C)CC4)cc3)nc2n1-c1cccc(C(C)(C)O)n1 [AZD1775] (first compound max 1 µM, partner max 1 µM)
combination Emax: 0.331

Shifting focus to the molecule that follows.
Reported combination Emax ( CC(=O)c1c(C)c2cnc(Nc3ccc(N4CCNCC4)cn3)nc2n(C2CCCC2)c1=O [Palbociclib] + CC1(C)CCC(CN2CCN(c3ccc(C(=O)NS(=O)(=O)c4ccc(NCC5CCOCC5)c([N+](=O)[O-])c4)c(Oc4cnc5[nH]ccc5c4)c3)CC2)=C(c2ccc(Cl)cc2)C1 [Venetoclax] (first compound max 10 µM, 7x7, partner max 1 µM) ) = 0.114
